Taken from PubChem BioAssay (NCI).

Below, each entry is listed alongside its reported TGI.
# System: NCI-H460 lung
# assay.name: NCI tumour cell line growth inhibition, 48 h

[
  {
    "compound": "CC(C)(C)C1CCC2c3c([nH]c4ccccc34)C3C(=O)N(c4cc(Cl)ccc4Cl)C(=O)C3C2C1 (stereo not drawn)",
    "TGI": "> 100 µM"
  },
  {
    "compound": "CN(CCO)c1nc(=O)c2c(n1C1OC(CO)C(O)C(O)C1O)CCCC2 (stereo not drawn)",
    "TGI": "> 100 µM"
  },
  {
    "compound": "Cc1ccc(-c2nc3ccccc3c(=O)n2NC2OC(CO)C(O)C(O)C2O)cc1 (stereo not drawn)",
    "TGI": "> 100 µM"
  }
]
